- experimental-protocol: T. gondii ME49Luc in HeLa cells, luciferase assay, 72 h, no IFN-y (AID 1259421)
- test-context: hits give low values, concentration not given here
Out of some 6,400 compounds screened, about 610 (9.5%) were called active. The entries come from a sample that favours actives as a whole.
measured-quantity: activity change, negative = inhibition (%)
All answers are understood in %, so give the number only.

According to the records, this molecule "NC1(C(=O)N[C@@H](CCO)c2ccc(Cl)cc2)CCN(c2ncnc3[nH]ccc23)CC1" displays activity change, negative = inhibition of 9.43

Record "O=C(O)Cc1ccc2c(c1)C(=O)c1ccccc1CO2" . Reported activity change, negative = inhibition: 19.3

Lab note: measured activity change, negative = inhibition of "CC(/C=C/C(=O)NO)=C\[C@@H](C)C(=O)c1ccc(N(C)C)cc1" was -69.6

Measured activity change, negative = inhibition of "COc1ccc(-c2coc3c(O)c(O)c(OC)cc3c2=O)cc1" : 77.9

Form field activity change, negative = inhibition, entry O=C(O)C1(Cc2cccc(Nc3nccs3)n2)CCC(Oc2cccc(Cl)c2F)CC1 (configuration not stated) : -34

Reported activity change, negative = inhibition of "Cc1[nH]cnc1CN1CCc2c(c3ccccc3n2C)C1=O" : 17

Notebook: "O=c1[nH]nc(Sc2ncc([N+](=O)[O-])s2)n1-c1ccc2c(c1)OCCO2" , activity change, negative = inhibition read as 34.4

The molecule identified as C1=C(CN2CCOCC2)COc2c1cccc2OCC1CNCCO1 (configuration not stated) registered its activity change, negative = inhibition at 2.39

Looking up "C[C@@H]1CN(Cc2ccc(F)cc2)[C@@H](C)CN1C(=O)c1cc2c(C(=O)C(=O)N(C)C)cn(C)c2cc1Cl" , I found its activity change, negative = inhibition recorded as -1.84

Entry under test: "Nc1ccc(-c2ccc3ncc4ccc(=O)n(-c5cccc(C(F)(F)F)c5)c4c3c2)cn1" . Its activity change, negative = inhibition was -76.7

So, CC1CCCC(C)N1NC(=O)c1ccc(Cl)c(S(N)(=O)=O)c1 (configuration not stated) ? Its activity change, negative = inhibition was 15.9

CC(=O)c1c(O)c(C)c(O)c2c1OC1=CC(=O)C(C(C)=O)C(=O)[C@@]12C (some centres not stated) has a reported activity change, negative = inhibition of 16.8

Noted for "O=C(NCCN1CCOCC1)c1ccc(Cl)cc1" : its activity change, negative = inhibition reads -0.363

Looking up "c1ccc2c(c1)CCCc1cc(NCCN3CCOCC3)nnc1-2" , I see its activity change, negative = inhibition listed as 12.2

Query "Cc1c(-c2ccc(O)cc2)n(Cc2ccc(OCCN3CCCCCC3)cc2)c2ccc(O)cc12" yields activity change, negative = inhibition of -80.5

Input "O=C(Nc1ccccc1-c1cn2c(CN3CCNCC3)csc2n1)c1cnc2ccccc2n1" . Output activity change, negative = inhibition: -11.3

Input "O=C(O)CC/C=C\CC[C@@H]1[C@@H](N2CCCCC2)[C@@H](O)C[C@@H]1OCc1ccc(-c2ccccc2)cc1" . Output activity change, negative = inhibition: -4.54

// "CC(=O)O.CC(=O)O.[Cl][Pt+2][Cl].[NH-]C1CCCCC1.[NH2-]" : activity change, negative = inhibition value = 1.41

GET /value?item= "CCCCCCCCNC[C@@H](O)[C@H](O)[C@@H](O)[C@@H](O)CO" &field=activity change, negative = inhibition returns 17.8

Value of activity change, negative = inhibition reported for the molecule CC(=O)NC1[C@@H](O)OC(CO)[C@@H](O)[C@H]1O (some centres not stated) is 16

The molecule identified as "CC(C)NC[C@@H](O)c1ccc(NS(C)(=O)=O)cc1" registered its activity change, negative = inhibition at 2.38

So for "O=c1[nH]c(=O)c2cn[nH]c2[nH]1" , the logged activity change, negative = inhibition turned out to be -8.15

Consider "COc1cc(-c2ncn(/C=C\C(=O)OC(C)C)n2)cc(C(F)(F)F)c1" . Its measured activity change, negative = inhibition is -86.8

Quick note, activity change, negative = inhibition for "O=P(O)(O)OC(CO)CO" landed at 38

Reported activity change, negative = inhibition of C[C@@H]1O[C@@H](OC[C@H]2OC(Oc3c(-c4ccc(O)c(O)c4)oc4cc(O)cc(O)c4c3=O)[C@H](O)[C@@H](O)[C@@H]2O)[C@H](O)[C@H](O)[C@H]1O (some centres not stated) : 0.376

The measured activity change, negative = inhibition associated with "COc1ccc([C@@H]2CC(=O)c3c(O)cc(O[C@@H]4O[C@H](CO[C@H]5O[C@@H](C)[C@H](O)[C@@H](O)[C@H]5O)[C@@H](O)[C@H](O)[C@H]4O)cc3O2)cc1O" reads 5.14

activity change, negative = inhibition in this record for "C=C[C@]1(C)C[C@@H](OC(=O)CSC(C)(C)CNC(=O)[C@H](N)C(C)C)[C@@]2(C)[C@H](C)CC[C@]3(CCC(=O)[C@H]32)[C@@H](C)[C@@H]1O" : -20.2

Entry under test: "CCC(CC)(NC(=O)C(C)C)C(=O)N[C@@H](CCCN=C(N)N)C(=O)NC1(C(=O)NC(c2ccc(F)cc2)c2ccc(F)cc2)CCCC1" . Its activity change, negative = inhibition was 12.8

Briefly, activity change, negative = inhibition measured for "CC(C)(C)c1cc(C(C)(C)C)c(NC(=O)c2c[nH]c3ccccc3c2=O)cc1O" : -81.7

Input "CCCC[P+](CCCC)(CCCC)Cc1ccc(NC(=O)[C@H](Cc2ccc3ccccc3c2)NC(=NC2CCCCC2)NC2CCCCC2)cc1" . Output activity change, negative = inhibition: 27

get_value(item= COc1ccc(C2(O)CCC(N3CC[C@@H](NC(=O)CNC(=O)c4cccc(C(F)(F)F)c4)C3)CC2)cn1 (some centres not stated) , readout=activity change, negative = inhibition) returns 4.89

Data point: "COC(=O)c1csc(C(=O)c2c[nH]c3ccccc23)n1" ; activity change, negative = inhibition = 5.76

The measured activity change, negative = inhibition associated with CN(C)CCCO[C@H]1[C@@H](C(O)CO)OC2OC(C)(C)O[C@@H]21 (some centres not stated) reads 4.68

Given item "O=C(CCCCCCNC(=O)c1cnc(N(c2ccccc2)c2ccccc2)nc1)NO" , the value recorded as its activity change, negative = inhibition is -10.9

Lab note: "CCCCN(CCCC)C(=O)CN1C[C@H](c2ccc3c(c2)OCO3)[C@@H](C(=O)O)[C@@H]1c1ccc(OC)cc1" gave activity change, negative = inhibition of 2.8

The molecule listed as "C[C@]12OC(C[C@]1(O)CO)n1c3ccccc3c3c4c(c5c6ccccc6n2c5c31)CNC4=O" has a reported activity change, negative = inhibition of -87.7

The molecule "CCC(=O)N1CCN(c2ccc(-n3c(=O)ccc4cnc5ccc(-c6cnc7ccccc7c6)cc5c43)cc2C(F)(F)F)CC1" showed activity change, negative = inhibition equal to -56

----------
- experimental-protocol: T. gondii ME49Luc in HeLa cells, luciferase assay, 72 h, no IFN-y (AID 1259421)
- test-context: concentration not given here
Among all 6,400 compounds or so, about 610 (9.5%) were called active. Cut-off read from the data, not from the text of the source: active = activity change below about -70%; inconclusive = no clear call, values can overlap the other calls; inactive = above that. This excerpt belongs to a sample that is enriched for actives. *1 amine or outer side, *2 acyl side, *3 side chain or, on linkers, in order; H or OH if unused. Where a SMILES comes first, the peptide text is derived from it. Bridges are numbered along the chain shown (N, C = ends). Roman numbers before positions name the chains, in order. [ ]: non-standard residue; d: D form. Actinocin(9to1) = Cc1c2oc3c(C)ccc(C(=O)[*:1])c3nc-2c(C(=O)[*:2])c(N)c1=O; NMeV = CN[CH](C(=O)O)C(C)C; Sar = CNCC(=O)O
Can you answer with just one of these options? Y = active, N = inactive

Request: Would you mind telling me which call this test gave "Cc1ccc(C(=O)Nc2ccc(Oc3cc4cnn(C)c4cc3-c3cn[nH]c3)c(F)c2)c(=O)n1-c1ccc(F)cc1" ?
Response: Y

Request: Hi, sorry to bother you, what did the test record for "Cc1ccc2c(Br)cc(Br)c(OC(=O)c3ccccc3)c2n1" ?
Response: Y

Request: // param item: "CCn1cc(-c2ccnc3[nH]c(-c4cccc(CN(C)C)c4)cc23)c(-c2ccc(NC(=O)N(C)C)cc2)n1" ; yields the recorded call
Response: Y

Request: GET /call?item= "O=C(Nc1ccncc1)Nc1ccc(-c2nc(N3CCOCC3)nc(N3C4CCC3COC4)n2)cc1" returns the recorded outcome of this test.
Response: Y

Request: Tell me the recorded outcome of this test for Fc1ccc(C2CCNCC2COc2ccc3c(c2)OCO3)cc1 (centres undefined) .
Response: N

Request: I would be grateful if you could indicate the recorded call for COc1ccc(C(=O)N2CCCc3cc(C4=NNC(=O)SC4C)ccc32)cc1OC (centres undefined) .
Response: N

Request: Dear colleague, could you share the recorded outcome for "COc1cc(O)c(C(=O)c2ccccc2)cc1O" when you have a moment?
Response: N

Request: I would be grateful if you could indicate the recorded call for "CC1(COc2ccc3c(c2)ncn3-c2ccc3cccc(N4CCC(N)CC4)c3n2)COC1" .
Response: Y

Request: Given "C[C@H](N)C(=O)N[C@@H](C)P(=O)(O)O" , state the outcome it received in this test.
Response: N

Request: What did the test return for NC(N)=NCC1COC2(CCCCC2)O1 (centres undefined) ?
Response: N

Request: Test call, this compound: "CCOC(=O)c1ccc(OCCC2CCN(c3ccc(C)nn3)CC2)cc1"
Response: N

Request: How was "COc1c/c(=C2\C=c3ccccc3=N2)[nH]/c1=C\c1[nH]c(C)cc1C" classified in this test?
Response: Y

Request: Fill in: this test's call for CC(C)[N+]1(C)C2CCC1CC(OC(=O)C(CO)c1ccccc1)C2 (centres undefined) is ___
Response: N

Request: I would be grateful if you could indicate the recorded call for "COc1ccc(CCN2CCN(CCCc3ccccc3)CC2)cc1OC" .
Response: N

Request: Test call, this compound: "FC(F)(F)C(F)(F)C(F)(F)C(F)(F)C(F)(F)C(F)(F)C(F)(F)C(F)(F)Br"
Response: N

Request: For this compound, state the assay outcome: "CCCCCN(CCCOC)C(=O)[C@@H](CCC(=O)O)NC(=O)c1ccc(Cl)c(Cl)c1"
Response: N

Request: Dear all, I need the recorded test outcome for "CNCC(=O)O" , thank you.
Response: N

Request: Which result was noted for this compound in the test: "O=C(OOC(=O)c1ccccc1)c1ccccc1"
Response: N

Request: Test call, this compound: Cc1c2oc3c(C)ccc(C(=O)OC(C)C4NC(=O)C(C(C)C)N(C)C(=O)CN(C)C(=O)C5CCCN5C(=O)C(C(C)C)NC4=O)c3nc-2c(C(=O)OC(C)C2NC(=O)C(C(C)C)N(C)C(=O)CN(C)C(=O)C3CCCN3C(=O)C(C(C)C)NC2=O)c(N)c1=O (centres undefined) (I: cyclo([Sar][NMeV]TVP) / II: cyclo([Sar][NMeV]TVP); linker I:3-II:3 via Actinocin(9to1); configuration not given here)
Response: Y
